Target: myeloperoxidase (MPO) (Homo sapiens (Human), UniProt P05164)
Sequence (P05164 49-745): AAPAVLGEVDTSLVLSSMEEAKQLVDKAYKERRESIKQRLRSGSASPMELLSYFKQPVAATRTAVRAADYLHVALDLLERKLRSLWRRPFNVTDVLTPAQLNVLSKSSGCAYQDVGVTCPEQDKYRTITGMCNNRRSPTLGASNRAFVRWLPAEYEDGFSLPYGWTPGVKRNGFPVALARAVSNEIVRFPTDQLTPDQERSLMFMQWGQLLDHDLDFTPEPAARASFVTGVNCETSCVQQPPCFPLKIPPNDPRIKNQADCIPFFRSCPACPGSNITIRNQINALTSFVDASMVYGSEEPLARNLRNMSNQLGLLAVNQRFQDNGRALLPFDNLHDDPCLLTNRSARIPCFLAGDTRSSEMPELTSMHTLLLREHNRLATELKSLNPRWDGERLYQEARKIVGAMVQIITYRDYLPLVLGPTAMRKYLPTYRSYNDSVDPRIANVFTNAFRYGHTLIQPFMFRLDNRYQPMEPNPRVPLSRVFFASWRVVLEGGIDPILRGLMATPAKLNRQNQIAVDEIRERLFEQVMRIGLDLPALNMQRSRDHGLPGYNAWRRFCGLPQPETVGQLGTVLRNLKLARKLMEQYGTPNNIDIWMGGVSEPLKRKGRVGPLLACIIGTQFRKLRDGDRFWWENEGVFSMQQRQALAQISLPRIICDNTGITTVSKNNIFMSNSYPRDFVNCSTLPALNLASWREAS
Assay: MPO chlorination assay (APF assay)
Format: biochemical
Conditions: potency range class
ASSAY READOUT: IC50

Some compounds with recorded IC50:
> print(dat)
                                   compound        meas.value
1  CC(C)(C)[Si](C)(C)OCC(c1ccccc1)n1cc(Cc2cc(N)nc3[nH]nnc23)cn1 (stereo not shown)     101 to 999 nM
2  CC1CCN(S(=O)(=O)c2cccc(Cn3cc(Cc4cc(N)nc5[nH]nnc45)cn3)c2)CC1     101 to 999 nM
3    Nc1cc(Cn2ncc(-c3ccccc3)n2)c2nn[nH]c2n1  1000 to 10000 nM

Now take the following compound into account.
Request: IC50, test system myeloperoxidase (MPO) (Homo sapiens (Human), UniProt P05164), entry Nc1cc(Cc2cnn(Cc3ccc4c(c3)CC[C@@H]4N)c2)c2nn[nH]c2n1
101 to 999 nM

---

Target: myeloperoxidase (MPO) (Homo sapiens (Human), UniProt P05164)
Test: MPO chlorination assay (APF assay)
Type: biochemical
Details: potency range class
pIC50: −log10 of the molar value.
The following compounds are listed with their measured pIC50 values.

Observe how each entry below is paired with its result.
> print(dat)
                                   compound    meas.value
1  Cc1nc(-c2cccc(Cn3cc(Cc4cc(N)nc5[nH]nnc45)cn3)c2)no1  6.00 to 7.00
2  Nc1cc(Cc2cnn(Cc3cccc(N4CCNCC4Cc4ccccc4)c3)c2)c2nn[nH]c2n1 (centres unmarked)  6.00 to 7.00
3  Nc1cc(Cc2cnn(Cc3cccc(-c4ccc(OC(F)(F)F)cc4)c3)c2)c2nn[nH]c2n1  6.00 to 7.00
4  N#Cc1ccc(Cn2cc(Cc3cc(N)nc4[nH]nnc34)cn2)cc1  6.00 to 7.00
5  Nc1cc(Cc2cnn(Cc3cccc(-c4c[nH]cn4)c3)c2)c2nn[nH]c2n1  6.00 to 7.00

Given the compound Nc1cc(Cc2cnn(Cc3cccc(Oc4cccc(C5CCNCC5)c4)c3)c2)c2nn[nH]c2n1 , what is its reported pIC50?
7.00 to 9.00

Reported pIC50, compound COc1cccc(Cn2cc(Cc3cc(N)nc4[nH]nnc34)cn2)c1 : ____
7.00 to 9.00

Reported pIC50, compound Nc1cc(Cn2nnc3ccc(Cl)cc32)c2nn[nH]c2n1 : ____
6.00 to 7.00

---

Measured IC50, listed per entry for reference.
Molecular target: myeloperoxidase (MPO) (Homo sapiens (Human))
Assay: MPO peroxidation assay (Amplex Red assay)
Format: biochemical
Conditions: potency range class

I would be grateful if you could share the reported IC50 for Nc1cc(Cc2cnn(CC3CC(Cc4ccc(F)cc4)CN3)c2)c2nn[nH]c2n1 (stereo not drawn) [Example 281] .
1 to 100 nM

Can you share its IC50? I mean this compound: Nc1cc(Cc2cnn(Cc3ccccc3C3CCNCC3)c2)c2nn[nH]c2n1 [Example 215]
1 to 100 nM

Looking for the measured IC50 of Nc1cc(Cc2cnn(Cc3cccc(Cc4ccccc4)c3)c2)c2nn[nH]c2n1 [Example 67] , can you help?
1 to 100 nM

---

Biological target: myeloperoxidase (MPO) (Homo sapiens (Human), UniProt P05164)
Assay: MPO chlorination assay (APF assay)
Format: biochemical
Conditions: potency range class
ASSAY READOUT: IC50

Known results for molecules:
> print(dat)
                                   molecule   meas.value
1  Nc1cc(Cc2cnn(-c3cccc4ccccc34)c2)c2nn[nH]c2n1  1 to 100 nM
2  Cc1ccnc(-n2cc(Cc3cc(N)nc4[nH]nnc34)cn2)c1  1 to 100 nM
3  Nc1cc(Cc2cnn(Cc3cccc([C@@H]4CCNC4)c3)c2)c2nn[nH]c2n1  1 to 100 nM
4  Nc1cc(Cc2cnn(Cc3cccc(N4CCNC(c5ccccc5)C4)c3)c2)c2nn[nH]c2n1 (centres unmarked)  1 to 100 nM

With those in mind, consider the next molecule.
# get_value(readout='IC50', item= COc1ccc(CN2CCc3ccc(Cn4cc(Cc5cc(N)nc6[nH]nnc56)cn4)cc3C2=O)cc1 )
1000 to 10000 nM

---

Biological target: myeloperoxidase (MPO) (Homo sapiens (Human))
Test: MPO chlorination assay (APF assay)
Assay type: biochemical
Settings: potency range class
pIC50: −log10 of the molar value.
ASSAY READOUT: pIC50

> print(dat)
                                   compound    meas.value
1  N#Cc1cccc(Cn2cc(Cc3cc(N)nc4[nH]nnc34)cn2)c1 [Example 158]  7.00 to 9.00

Attention now turns to another entry.
# input compound: Nc1cc(Cc2cnn(Cc3cccc(N4CC5C(N)C5C4)c3)c2)c2nn[nH]c2n1 (stereo not shown) [Example 229] ; wanted: its pIC50
7.00 to 9.00

---

Molecular target: myeloperoxidase (MPO) (Homo sapiens (Human))
Test: MPO peroxidation assay (Amplex Red assay)
Format: biochemical
Conditions: potency range class
ASSAY READOUT: IC50

A selection of reference data follows.
> print(dat)
                                   molecule     meas.value
1  Cc1cnc(CNC(=O)c2ccc(Cn3cc(Cc4cc(N)nc5[nH]nnc45)cn3)cc2)cn1    1 to 100 nM
2  CC1C[C@@H](c2cccc(Cn3cc(Cc4cc(N)nc5[nH]nnc45)cn3)c2)CN1 (some centres unmarked)    1 to 100 nM
3  COc1ccc(Cn2cc(Cc3cc(N)nc4[nH]nnc34)cn2)cc1    1 to 100 nM
4  N#Cc1cccc(-c2ccc(Cn3cc(Cc4cc(N)nc5[nH]nnc45)cn3)cc2)c1  101 to 999 nM
5  Nc1cc(Cc2cnn(Cc3ccc(C(=O)NCCO)cc3)c2)c2nn[nH]c2n1    1 to 100 nM

I would be grateful if you could share the reported IC50 for Nc1cc(Cc2cnn(Cc3ccc(C(=O)N4CCOCC4)cc3)c2)c2nn[nH]c2n1 .
1 to 100 nM

What measured IC50 goes with Cc1cncc(Oc2cccc(Cn3cc(Cc4cc(N)nc5[nH]nnc45)cn3)c2)n1 ?
1 to 100 nM

Give its IC50 value. Item: Nc1cc(Cc2cnn(Cc3cccc(CN4CCOCC4)c3)c2)c2nn[nH]c2n1
101 to 999 nM

Fill in: IC50 of Cc1ccnc(-n2cc(Cc3cc(N)nc4[nH]nnc34)cn2)c1 is ___
1 to 100 nM

Name the reported IC50 value associated with the molecule CN(C)CCN(C)C(=O)c1ccc(Cn2cc(Cc3cc(N)nc4[nH]nnc34)cn2)cc1
1 to 100 nM

For the molecule Cc1ccc(-n2cc(Cc3cc(N)nc4[nH]nnc34)cn2)c2ccccc12 , what IC50 is on record?
1 to 100 nM

---

Target: myeloperoxidase (MPO) (Homo sapiens (Human))
Assay: MPO chlorination assay (APF assay)
Assay type: biochemical
Conditions: potency range class
ASSAY READOUT: IC50

> print(dat)
                                   compound     meas.value
1  Nc1cc(Cc2cnn(Cc3cccc(C4CCNC4)c3)c2)c2nn[nH]c2n1 (stereo not drawn) [Example 187]    1 to 100 nM
2  CC(C)(C)c1cccc(Cn2cc(Cc3cc(N)nc4[nH]nnc34)cn2)c1    1 to 100 nM
3  Nc1cc(Cc2cnn(Cc3ccc4c(c3)CCNC4)c2)c2nn[nH]c2n1    1 to 100 nM
4  Nc1cc(Cc2cnn(Cc3cccc([C@@H]4CNC(=O)C4)c3)c2)c2nn[nH]c2n1  101 to 999 nM
5  Nc1cc(Cc2cnn(Cc3ccc4ncccc4c3)c2)c2nn[nH]c2n1  101 to 999 nM

Look at this compound and give its reported IC50. Nc1cc(Cn2nc3ccc(Cl)cc3n2)c2nn[nH]c2n1
1000 to 10000 nM

Give the measured IC50 of Nc1cc(Cc2cnn(Cc3ccc(C(=O)NCc4ncc[nH]4)cc3)c2)c2nn[nH]c2n1 .
101 to 999 nM

Value lookup for IC50; key = Nc1cc(Cc2cnn(Cc3cccc(-c4cccnc4)c3)c2)c2nn[nH]c2n1
1 to 100 nM

// query IC50 value for entry Cn1nc(Cn2cc(Cc3cc(N)nc4[nH]nnc34)cn2)c2ccccc21
101 to 999 nM

---

Biological target: myeloperoxidase (MPO) (Homo sapiens (Human), UniProt P05164)
Assay: MPO peroxidation assay (Amplex Red assay)
Format: biochemical
Conditions: potency range class
Procedure: MPO Peroxidation Assay (Amplex Red Assay) MPO peroxidation activity was measured in 100 mM KPi (pH 7.4) by utilizing the non-fluorescent reagent Amplex Red (Invitrogen Cat. #A12222) which can be oxidized to the highly fluorescent resorufin. Amplex Red is oxidized by the peroxidase action of MPO to resorufin. […] Kinetic determinations were carried out immediately on a Perkin Elmer Envision (15 minute kinetic read, Ex: 535 nm, Em: 590 nm). […]
pIC50: −log10 of the molar value.
Recorded pIC50 for the following compounds

Any idea what its pIC50 is? The compound is Nc1cc(Cc2cnn(Cc3ccc(Cl)cc3Cl)c2)c2nn[nH]c2n1 [Example 117]
7.00 to 9.00

Would you kindly share the measured pIC50 for COC(=O)[C@@H]1C[C@@H](Oc2cccc(Cn3cc(Cc4cc(N)nc5[nH]nnc45)cn3)c2)CN1 [Example 245] ?
6.00 to 7.00
